Molecular target: Ataxin-2 (Homo sapiens)
Assay: qHTS for Inhibitors of ATXN expression.
Assay type: functional
The campaign covered roughly 400,000 compounds. About 2,100 (0.53%) were called active. Roughly 14% stayed inconclusive and do not appear here. The full list was thinned out, with actives kept by preference.

[
  {
    "compound": "CC(=O)c1ccc(NC(=O)COC(=O)Cc2ccsc2)cc1",
    "test.target": "Ataxin-2 (Homo sapiens)",
    "Potency": "inactive"
  },
  {
    "compound": "Cc1ccc(C(C)NC(=O)C2CCCC2)c(C)c1 (configuration not stated)",
    "test.target": "Ataxin-2 (Homo sapiens)",
    "Potency": "inactive"
  },
  {
    "compound": "O=C(C[n+]1ccccc1)NN=Cc1cc(Br)cc(Br)c1O",
    "test.target": "Ataxin-2 (Homo sapiens)",
    "Potency": "inactive"
  },
  {
    "compound": "Cc1ccc2nc3nc(NCC4CCCO4)c(C(=O)NC4CCCC4)cc3c(=O)n2c1 (configuration not stated)",
    "test.target": "Ataxin-2 (Homo sapiens)",
    "Potency": "inactive"
  },
  {
    "compound": "O=C1[C@H](Oc2ccccc2)[C@@H](c2ccccc2)N1c1ccncc1",
    "test.target": "Ataxin-2 (Homo sapiens)",
    "Potency": "28.2 µM (active)"
  },
  {
    "compound": "Cc1ccc(CNC(=O)c2sc3nc(-c4ccc(F)cc4)ccc3c2N)cc1",
    "test.target": "Ataxin-2 (Homo sapiens)",
    "Potency": "inactive"
  },
  {
    "compound": "O=C1[C@H]2C(c3ccccc3)=NN(c3ccccc3)[C@H]2C(=O)N1c1ccccc1",
    "test.target": "Ataxin-2 (Homo sapiens)",
    "Potency": "inactive"
  },
  {
    "compound": "COc1ccccc1C=CC(=O)C=Cc1ccccc1OC",
    "test.target": "Ataxin-2 (Homo sapiens)",
    "Potency": "16.8 µM (active)"
  },
  {
    "compound": "O=C1c2ccccc2C(Nc2ccc(Cl)cn2)N1c1cccnc1 (configuration not stated)",
    "test.target": "Ataxin-2 (Homo sapiens)",
    "Potency": "inactive"
  },
  {
    "compound": "Cc1nn(C)c(C)c1CCC(=O)N1CCCC(Nc2ccc(C(C)C)cc2)C1 (configuration not stated)",
    "test.target": "Ataxin-2 (Homo sapiens)",
    "Potency": "39.8 µM (active)"
  },
  {
    "compound": "COc1ccccc1/C=C/C(=O)NCC(=O)N=Nc1c(O)[nH]c2ccccc12",
    "test.target": "Ataxin-2 (Homo sapiens)",
    "Potency": "inactive"
  },
  {
    "compound": "CCOc1ccccc1NC(=O)Nc1ccc2nc(N3CCN(C)CC3)cc(C)c2c1",
    "test.target": "Ataxin-2 (Homo sapiens)",
    "Potency": "31.6 µM (active)"
  },
  {
    "compound": "O=C(NCc1ccccc1)c1c(Cl)nc(Cl)c(Cl)c1Cl",
    "test.target": "Ataxin-2 (Homo sapiens)",
    "Potency": "39.8 µM (active)"
  },
  {
    "compound": "Cc1cc(Nc2cccc(Cl)c2)nc2ccc(NC(=O)COc3ccc(Cl)cc3)cc12",
    "test.target": "Ataxin-2 (Homo sapiens)",
    "Potency": "inactive"
  },
  {
    "compound": "CN1C(=O)c2cccc3c(N(C)C)ccc(c23)C1=O",
    "test.target": "Ataxin-2 (Homo sapiens)",
    "Potency": "inactive"
  },
  {
    "compound": "CN1CCN(c2nc3ccccn3c(=O)c2C=C(C#N)C#N)CC1",
    "test.target": "Ataxin-2 (Homo sapiens)",
    "Potency": "inactive"
  },
  {
    "compound": "CCc1cc(=O)oc2c(C)c(O)c(CN(C)C)cc12",
    "test.target": "Ataxin-2 (Homo sapiens)",
    "Potency": "inactive"
  },
  {
    "compound": "COc1ccc(Cl)cc1C(=O)Nc1ccc2nc(Nc3cccc(Cl)c3)cc(C)c2c1",
    "test.target": "Ataxin-2 (Homo sapiens)",
    "Potency": "inactive"
  },
  {
    "compound": "Cc1cc(N2CCN(C)CC2)nc2ccc(NC(=O)Nc3cccc(Cl)c3)cc12",
    "test.target": "Ataxin-2 (Homo sapiens)",
    "Potency": "31.6 µM (active)"
  },
  {
    "compound": "COc1cccc(CNC(=O)CCCc2nnc3n(C)c(=O)c4sccc4n23)c1",
    "test.target": "Ataxin-2 (Homo sapiens)",
    "Potency": "inactive"
  },
  {
    "compound": "CCOC(=O)c1cc2c(=O)n3ccccc3nc2n(CCOC)/c1=N\\C(=O)C(C)(C)C",
    "test.target": "Ataxin-2 (Homo sapiens)",
    "Potency": "inactive"
  },
  {
    "compound": "Nc1c(C(=O)NCc2ccc(Cl)cc2)sc2nc(-c3ccc(F)cc3)ccc12",
    "test.target": "Ataxin-2 (Homo sapiens)",
    "Potency": "inactive"
  }
]

Reference for the values: ChEMBL document CHEMBL1201862
